System: 362531-283-R-J2-PDC complex spheroid viability;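 also: spheroids exposed to the agents for 7 days before readout; luminescence viability as percent of DMSO vehicle control wells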
Test: Anticancer human tumor 362531-283-R-J2-PDC patient-derived colon adenocarcinoma cell line growth inhibition [RAS]
Conditions: second compound 10 µM; first compound 0.316 µM; stronger effect = lower value
From the text: RAS pathway inhibitors in Combinations in Complex Spheroids A high-throughput screen of multi-cell type tumor spheroids was designed to identify active combinations of RAS pathway inhibitors and targeted small molecules. Complex spheroids include a stromal component modeled by human endothelial cells (HUVEC) and fibroblasts modeled by human mesenchymal stem cells (MSCs). […] Compounds. […] If the clinical Cmax for an agent had not been determined, the highest concentration tested was 10 microM. […]
Let's look at some compounds and their measured viability, T/C.

COMPOUND	TARGET_OR_TEST_SYSTEM	VALUE_UNITS	viability, T/C
NC1c2ccccc2OC12CCN(c1cnc3c(N4CCCc5ncccc54)n[nH]c3n1)CC2 (stereo not drawn) + C#Cc1c(F)ccc2cc(O)cc(-c3ncc4c(N5CC6CCC(C5)N6)nc(OCC56CCCN5CC(F)C6)nc4c3F)c12	362531-283-R-J2-PDC complex spheroid viability	%	5.98
C=CC(=O)N1CCN(c2nc(OCC3CCCN3C)nc3c(F)c(-c4nc(N)cc(C)c4C(F)(F)F)c(Cl)cc23)C(C)C1 (stereo not drawn) + C#Cc1c(F)ccc2cc(O)cc(-c3ncc4c(N5CC6CCC(C5)N6)nc(OCC56CCCN5CC(F)C6)nc4c3F)c12	362531-283-R-J2-PDC complex spheroid viability	%	49.6
Nc1ccn(C2OC(CO)C(O)C2(F)F)c(=O)n1 (stereo not drawn) + C#Cc1c(F)ccc2cc(O)cc(-c3ncc4c(N5CC6CCC(C5)N6)nc(OCC56CCCN5CC(F)C6)nc4c3F)c12	362531-283-R-J2-PDC complex spheroid viability	%	18.1
